Field: inhibition at 10 µM. Provide a value for each of the compounds that follow.
target: human B-Raf (Homo sapiens, UniProt P15056); construct: Flag; GST; made in house; host or cells: Sf9 insect cells (B-Raf); E. coli (MEK1-GST); test: B-Raf Kinase to MEK1 ELISA; assay type: biochemical; conditions: read-out: % Inhib./10 uM
Sequence (P15056 whole entry): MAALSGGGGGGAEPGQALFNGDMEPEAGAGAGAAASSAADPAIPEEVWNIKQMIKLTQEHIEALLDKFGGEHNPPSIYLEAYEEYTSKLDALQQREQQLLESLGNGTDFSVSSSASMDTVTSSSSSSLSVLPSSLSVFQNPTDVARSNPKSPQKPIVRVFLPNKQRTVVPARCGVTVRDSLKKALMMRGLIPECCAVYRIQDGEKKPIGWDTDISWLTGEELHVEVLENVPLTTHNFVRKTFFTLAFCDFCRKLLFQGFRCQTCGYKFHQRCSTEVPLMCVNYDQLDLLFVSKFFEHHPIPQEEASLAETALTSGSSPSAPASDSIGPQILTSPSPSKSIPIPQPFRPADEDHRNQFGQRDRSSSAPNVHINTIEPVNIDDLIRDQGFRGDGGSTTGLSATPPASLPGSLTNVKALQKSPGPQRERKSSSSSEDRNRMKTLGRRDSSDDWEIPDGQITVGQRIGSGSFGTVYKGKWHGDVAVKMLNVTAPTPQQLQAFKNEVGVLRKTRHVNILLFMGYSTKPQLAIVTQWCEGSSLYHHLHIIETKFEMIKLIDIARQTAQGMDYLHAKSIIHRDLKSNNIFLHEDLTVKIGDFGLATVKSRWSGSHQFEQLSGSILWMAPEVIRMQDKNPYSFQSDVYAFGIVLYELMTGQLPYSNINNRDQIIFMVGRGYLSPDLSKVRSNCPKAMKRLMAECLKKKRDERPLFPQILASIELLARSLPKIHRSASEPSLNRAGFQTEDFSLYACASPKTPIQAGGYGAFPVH
Unit % implied. Number only.

[ask] Form: Entry = CCOC(=O)c1cnn2c(-c3cccc(NC(=O)Cc4ccc(Cl)c(Cl)c4)c3)ccnc12 | System = human B-Raf (Homo sapiens, UniProt P15056) | inhibition at 10 µM = ____
[reply] 39

[ask] Request: O=C(Nc1cccc(-c2ccnc3cc(N4CCC[C@H]4CN4CCCC4)nn23)c1)c1cccc(C(F)(F)F)c1
[reply] 47

[ask] Request: CCOC(=O)c1cnn2c(-c3cccc(NC(=O)Nc4cccc(C(F)(F)F)c4)c3)ccnc12
[reply] 80

[ask] Request: CCOC(=O)c1cnn2c(-c3cccc(NC(=O)Cc4cccc(Cl)c4)c3)ccnc12
[reply] 14

[ask] Request: CCOC(=O)c1cnn2c(-c3cccc(NC(=O)c4ccc(OC)c(Cl)c4)c3)ccnc12
[reply] 5

[ask] Request: O=C(Nc1cccc(-c2ccnc3cc(O)nn23)c1)c1cccc(C(F)(F)F)c1
[reply] 16

[ask] Request: Cc1cc2nccc(-c3cccc(NC(=O)c4cccc(C(F)(F)F)c4)c3)n2n1
[reply] 26

[ask] Request: CCOC(=O)c1cnn2c(-c3cccc(NC(=O)Nc4ccc(Cl)cc4C(F)(F)F)c3)ccnc12
[reply] 9
